Method: in vivo
Condition context: female, mouse, po, 10 mg/kg, Tmax

- Smiles code: "Cc1cc(-c2ccccc2)c(C(=O)C(=O)Nc2ccc(N3CCN(c4ncc(F)cn4)CC3)cc2)n1C"
  Uom: "h"
  Tmax: 1

* * *

Method: in vivo
Condition context: male, mouse, po, 20 mg/kg, Tmax

- Smiles code: "Cc1cc(-c2ccccc2)c(C(=O)C(=O)Nc2ccc(N3CCN(c4ncc(F)cn4)CC3)cc2)n1C"
  Tmax / h: 1

* * *

Method: in vivo
Condition context: female, mouse, po, 10 mg/kg, AUC 0-12
Result type: AUC(0-t) (ng·h/mL)

- Smiles code: "Cc1cc(-c2ccccc2)c(C(=O)C(=O)Nc2ccc(N3CCN(c4ncc(F)cn4)CC3)cc2)n1C"
  Readout value: 11400
